Tested on: Escherichia coli
protocol-notes: Antibacterial activity against Escherichia coli 319 assessed as growth inhibition at MIC after 24 hr by agar dilution method
Type: functional
Calls of active or inactive are those of the source. No cut-off for these calls is given here.
property-measured: diameter of the inhibition zone (DIZ)

>>> assay_result("Clc1ccc(OCc2cc3ccccc3cc2COc2ccc(Cl)c3cccnc23)c2ncccc12")
"7.2 mm"
>>> assay_result("c1ccc(COc2cccc3cccnc23)c(COc2cccc3cccnc23)c1")
"inactive"
>>> assay_result("Cc1ccc2cccc(OCc3ccccc3COc3cccc4ccc(C)nc34)c2n1")
"inactive"
>>> assay_result("Clc1ccc(OCc2cccc(COc3ccc(Cl)c4cccnc34)c2)c2ncccc12")
"inactive"
>>> assay_result("Clc1ccc(OCc2ccccc2COc2ccc(Cl)c3cccnc23)c2ncccc12")
"6.5 mm"
>>> assay_result("CC1(C)S[C@@H]2[C@H](NC(=O)[C@H](N)c3ccc(O)cc3)C(=O)N2[C@H]1C(=O)O [AMOXICILLIN]")
"8 mm"
>>> assay_result("Cc1ccc2cccc(OCc3cc4ccccc4cc3COc3cccc4ccc(C)nc34)c2n1")
"7 mm"
>>> assay_result("c1ccc2cc(COc3cccc4cccnc34)c(COc3cccc4cccnc34)cc2c1")
"9.7 mm"
>>> assay_result("Clc1ccc(OCc2nc3ccccc3nc2COc2ccc(Cl)c3cccnc23)c2ncccc12")
"8 mm"

----------
Test system: Aspergillus niger
protocol-notes: Antifungal activity against Aspergillus niger assessed as growth inhibition at MIC after 96 hr by agar dilution method
Assay type: functional
Calls of active or inactive are those of the source. No cut-off for these calls is given here.
property-measured: diameter of the inhibition zone (DIZ)

>>> assay_result("Cc1ccc2cccc(OCc3ccccc3COc3cccc4ccc(C)nc34)c2n1")
"9 mm"
>>> assay_result("c1ccc(COc2cccc3cccnc23)c(COc2cccc3cccnc23)c1")
"inactive"
>>> assay_result("Clc1ccc(OCc2cccc(COc3ccc(Cl)c4cccnc34)c2)c2ncccc12")
"8 mm"
>>> assay_result("c1cc(COc2cccc3cccnc23)cc(COc2cccc3cccnc23)c1")
"inactive"
>>> assay_result("Clc1ccc(OCc2nc3ccccc3nc2COc2ccc(Cl)c3cccnc23)c2ncccc12")
"7.5 mm"
>>> assay_result("OC(Cn1cncn1)(Cn1cncn1)c1ccc(F)cc1F")
"8.6 mm"
>>> assay_result("Cc1ccc2cccc(OCc3cccc(COc4cccc5ccc(C)nc45)c3)c2n1")
"inactive"
>>> assay_result("Clc1ccc(OCc2ccccc2COc2ccc(Cl)c3cccnc23)c2ncccc12")
"7.5 mm"

----------
Test system: Candida albicans
protocol-notes: Antifungal activity against Candida albicans assessed as growth inhibition at MIC after 96 hr by agar dilution method
Format: functional
The source made the active and inactive calls. The rule behind the calls is not given here.
property-measured: diameter of the inhibition zone (DIZ)

>>> assay_result("Clc1ccc(OCc2ccccc2COc2ccc(Cl)c3cccnc23)c2ncccc12")
"7 mm"
>>> assay_result("OC(Cn1cncn1)(Cn1cncn1)c1ccc(F)cc1F")
"10.2 mm"
>>> assay_result("Cc1ccc2cccc(OCc3ccccc3COc3cccc4ccc(C)nc34)c2n1")
"inactive"
>>> assay_result("c1cnc2c(OCc3ccc(COc4cccc5cccnc45)cc3)cccc2c1")
"inactive"
>>> assay_result("c1cc(COc2cccc3cccnc23)cc(COc2cccc3cccnc23)c1")
"inactive"

----------
Test system: Escherichia coli
protocol-notes: Antibacterial activity against Escherichia coli 319 assessed as growth inhibition after 24 hr by agar dilution method
Type: functional
measurement-context: Escherichia coli, 319, 24 h
Documented MIC across a set of compounds
property-measured: MIC

>>> assay_result("Clc1ccc(OCc2cc3ccccc3cc2COc2ccc(Cl)c3cccnc23)c2ncccc12")
"32 µg/mL"
>>> assay_result("Cc1ccc2cccc(OCc3ccccc3COc3cccc4ccc(C)nc34)c2n1")
"> 1000 µg/mL"
>>> assay_result("Cc1ccc2cccc(OCc3cc4ccccc4cc3COc3cccc4ccc(C)nc34)c2n1")
"> 500 µg/mL"
>>> assay_result("c1ccc(COc2cccc3cccnc23)c(COc2cccc3cccnc23)c1")
"> 500 µg/mL"
>>> assay_result("Clc1ccc(OCc2cccc(COc3ccc(Cl)c4cccnc34)c2)c2ncccc12")
"> 500 µg/mL"
>>> assay_result("c1ccc2cc(COc3cccc4cccnc34)c(COc3cccc4cccnc34)cc2c1")
"32 µg/mL"
>>> assay_result("CC1(C)S[C@@H]2[C@H](NC(=O)[C@H](N)c3ccc(O)cc3)C(=O)N2[C@H]1C(=O)O")
"4 µg/mL"
>>> assay_result("Clc1ccc(OCc2ccccc2COc2ccc(Cl)c3cccnc23)c2ncccc12")
"32 µg/mL"
>>> assay_result("Clc1ccc(OCc2nc3ccccc3nc2COc2ccc(Cl)c3cccnc23)c2ncccc12")
"32 µg/mL"
